Reported shrunken log2 fold change values are given for each entry in this list.
Tested on: Escherichia coli TOP10
Test: shrunken log2 fold change of peptide-encoding DNA abundance (4.5 h post-induction vs induction); higher = less antimicrobial activity (less host growth inhibition)
Settings: time post-induction: 4.5 h; library: site-saturation at positions 5, 18, 19, 20
The response must contain the number and no unit.

chain_sequence=RRIRSRPPRLPRPRPRPCARPRP result=0.00657
chain_sequence=RRIRSRPPRLPRPRPRPMCYPRP result=-0.0971

Q: # lookup: shrunken log2 fold change of RRIRNRPPRLPRPRPRPRECPRP
A: 0.0263

----------
Test system: Escherichia coli TOP10
Experiment: shrunken log2 fold change of peptide-encoding DNA abundance (4.5 h post-induction vs induction); higher = less antimicrobial activity (less host growth inhibition)
Conditions: time post-induction: 4.5 h; library: site-saturation at positions 5, 18, 19, 20
Property Name: shrunken log2 fold change
The response must contain the number and no unit.

Q: Checklist item: shrunken log2 fold change tested on Escherichia coli TOP10, entry RRIRERPPRLPRPRPRPFFIPRP , value?
A: -0.354

Q: Query RRIRLRPPRLPRPRPRPIMYPRP next
A: -0.16

Q: Query RRIRFRPPRLPRPRPRPGGLPRP next
A: 0.217

Q: Query RRIRRRPPRLPRPRPRPRVPPRP next
A: 0.745

Q: Query RRIRGRPPRLPRPRPRPNTEPRP next
A: 0.299

Q: Query RRIRQRPPRLPRPRPRPPKDPRP next
A: 0.0238

Q: Query RRIRHRPPRLPRPRPRPRSEPRP next
A: 0.117

Q: Query RRIRMRPPRLPRPRPRPPHTPRP next
A: 0.824

Q: Query RRIRSRPPRLPRPRPRPPWIPRP next
A: -0.0981

----------
Reported shrunken log2 fold change values are given for each entry in this list.
Tested on: Escherichia coli TOP10
Assay: shrunken log2 fold change of peptide-encoding DNA abundance (4.5 h post-induction vs induction); higher = less antimicrobial activity (less host growth inhibition)
Conditions: time post-induction: 4.5 h; library: site-saturation at positions 5, 18, 19, 20
The response must contain the number and no unit.

Record excerpt, results attached:
chain_sequence=RRIRVRPPRLPRPRPRPPWQPRP assayed_target="Escherichia coli TOP10" property_name="shrunken log2 fold change" result=0.44
chain_sequence=RRIRYRPPRLPRPRPRPEPVPRP assayed_target="Escherichia coli TOP10" property_name="shrunken log2 fold change" result=-0.00973
chain_sequence=RRIRYRPPRLPRPRPRPTKGPRP assayed_target="Escherichia coli TOP10" property_name="shrunken log2 fold change" result=-0.136

Q: # lookup: shrunken log2 fold change of RRIRFRPPRLPRPRPRPGAPPRP
A: 0.54

Q: Query RRIRCRPPRLPRPRPRPYLLPRP next
A: -0.559

----------
Test system: Escherichia coli TOP10;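 further: peptides expressed intracellularly from a pBAD plasmid library in pooled LB shake-flask culture, induced with 0.3% L-arabinose, DNA abundance read by NGS, three biological replicates, DESeq2 with apeglm shrinkage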
Test: shrunken log2 fold change of peptide-encoding DNA abundance (4.5 h post-induction vs induction); higher = less antimicrobial activity (less host growth inhibition)
Settings: time post-induction: 4.5 h; library: site-saturation at positions 5, 18, 19, 20
Property Name: shrunken log2 fold change
The response must contain the number and no unit.

Record excerpt, results attached:
chain_sequence=RRIRERPPRLPRPRPRPWHDPRP assayed_target="Escherichia coli TOP10" result=-0.251
chain_sequence=RRIRMRPPRLPRPRPRPMGVPRP assayed_target="Escherichia coli TOP10" result=0.06
chain_sequence=RRIRWRPPRLPRPRPRPHCGPRP assayed_target="Escherichia coli TOP10" result=-0.0645
chain_sequence=RRIRYRPPRLPRPRPRPTWQPRP assayed_target="Escherichia coli TOP10" result=-0.255
chain_sequence=RRIRLRPPRLPRPRPRPCLMPRP assayed_target="Escherichia coli TOP10" result=-0.266
chain_sequence=RRIRYRPPRLPRPRPRPYIEPRP assayed_target="Escherichia coli TOP10" result=-0.469

Q: # lookup: shrunken log2 fold change of RRIRCRPPRLPRPRPRPPTHPRP
A: 0.172

Q: Query RRIRMRPPRLPRPRPRPVNMPRP next
A: -0.292

Q: Query RRIRQRPPRLPRPRPRPCVAPRP next
A: 0.317

Q: Query RRIRRRPPRLPRPRPRPKCIPRP next
A: -0.019

Q: Query RRIRLRPPRLPRPRPRPSTYPRP next
A: -0.205

Q: Query RRIRGRPPRLPRPRPRPQELPRP next
A: 0.27

Q: Query RRIRYRPPRLPRPRPRPNGHPRP next
A: -0.24

Q: Query RRIRDRPPRLPRPRPRPMEHPRP next
A: 0.208

Q: Query RRIRDRPPRLPRPRPRPWGMPRP next
A: -0.165
